- target_desc: full-length human GLP-1R with an N-terminal FLAG tag (human, UniProt P43220 24-463)
- experimental_details: cell-based or functional assay
Starred links: 1 amine or outer side, 2 acyl side, 3 side chain; linkers in the order of their positions; H or OH if unused. Non-standard residues stand in square brackets, D forms with d. Groups on a side chain read outwards from the residue. No end group written: not given here. *: point of attachment. G2E3 = linker of 2 Gly and 3 Glu (read GGEEE); C15 diacid = O=C(O)CCCCCCCCCCCCCC(=O)*; γGlu = O=C(O)[C@H](CCC(=O)[*:2])N[*:1]; NMeY = CN[C@@H](Cc1ccc(O)cc1)C(=O)O; AEEA = NCCOCCOCC(=O)O; Aib = CC(C)(N)C(=O)O
Could you please report measured Human GLP1R cAMP HEK293T EC50 for the items listed next?
Field: numeric (nM). Do not append units.

Q. Which value of Human GLP1R cAMP HEK293T EC50 has been reported for [NMeY][Aib]EGTFISDYSIALDR[Aib]AQ[Aib]NFVNWLLAQK([G2E3-C15 diacid])PSSGAPPPS-OH [Compound 32] in the records?
A. 4.73

Q. Now give it for [NMeY][Aib]EGTFISDYSIALDRK([AEEA-AEEA-γGlu-C15 diacid])AQ[Aib]DFVNWLLAQRPSSGAPPPS-NH2 [Compound 104] too.
A. 1000

Q. Now give it for [NMeY][Aib]EGTFISDYSIALDR[Aib]AQ[Aib]DFVNWLLAK(2OEGgE‑C15DA)RPSSGAPPPS-NH2 [Compound 109] too.
A. 832

Q. Now give it for [NMeY][Aib]EGTFISDYSIALDRK([G2E3-C15 diacid])AQ[Aib]NFVNWLLAQSPSSGAPPPS-OH (also: Me-Tyr methyl position not given here) [Compound 53] too.
A. 617

Q. Now give it for [NMeY][Aib]EGTFISDYSIALDR[Aib]KQ[Aib]NFVNWLLAQSPSSGAPPPS-NH2 (not fully specified (residue 18, N-terminus)) [Compound 119] too.
A. 1000

Q. Now give it for [NMeY][Aib]EGTFISDYSIAKDR[Aib]AQQNFVNWLLAQK (not fully specified (residue 14, N-terminus)) [Compound 2] too.
A. 1000

Q. Now give it for [NMeY][Aib]EGTFISDYSIALDRK([AEEA-AEEA-γGlu-C15 diacid])HQ[Aib]NFVNWLLAQS-OH (also: Me-Tyr methyl position not given here) [Compound 37] too.
A. 43.7

Q. Now give it for Me-Y[Aib]EGTFISDYSIAK([2OEG-γGlu-γGlu-C15 diacid])DR[Aib]AQ[Aib]NFVNWLLAQK-NH2 [Compound 22] too.
A. 631

Q. Now give it for Me-Y[Aib]EGTFISDYSI[Aib]KDR[Aib]AQ[Aib]DFVNWLLAQSPSSGAPPPS-OH (not fully specified (residues 1, 14)) [Compound 156] too.
A. 89.1

Q. Now give it for [NMeY][Aib]EGTFISDYSI[Aib]LDR[Aib]AQ[Aib]K(2OEGgE‑C15DA)FVNWLLAQSPSSGAPPPS-NH2 [Compound 102] too.
A. 31.6
